# maps each entry to its Potency
TARGET: Cruzipain (Trypanosoma cruzi) (UniProt P25779)
Sequence (P25779 123-467 limits assumed): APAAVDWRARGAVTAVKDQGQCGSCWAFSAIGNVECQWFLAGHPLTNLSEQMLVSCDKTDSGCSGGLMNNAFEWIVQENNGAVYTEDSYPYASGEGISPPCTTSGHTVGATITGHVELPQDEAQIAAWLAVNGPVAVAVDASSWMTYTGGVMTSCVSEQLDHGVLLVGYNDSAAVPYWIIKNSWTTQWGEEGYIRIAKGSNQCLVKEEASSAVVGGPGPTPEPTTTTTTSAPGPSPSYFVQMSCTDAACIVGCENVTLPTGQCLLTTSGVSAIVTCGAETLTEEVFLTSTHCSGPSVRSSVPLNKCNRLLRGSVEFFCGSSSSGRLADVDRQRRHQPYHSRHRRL
METHOD DESCRIPTION: Confirmation qHTS Assay for Inhibitors of Cruzain; note: potency is the fitted concentration of half-maximal effect; nearly all actives have a fitted effect of over 40% in size
EXPERIMENTAL SETUP: purified cruzain, Z-FR-AMC fluorescence, 0.01% Triton
Procedure: Cruzain is a cysteine protease from the tropical parasite Trypanosoma cruzi. This assay protocol is a follow-up and confirmation of related AID 1478 (qHTS Assay for Promiscuous and Specific Inhibitors of Cruzain -- with detergent). Cruzain was assayed by the use of fluorogenic coumarin-based substrate Z-FR-AMC: proteolytic cleavage releases AMC, whose fluorescence is measured at 360 nm excitation and 450 nm emission. Purified cruzain was supplied by the labs of Prof. […]
Inconclusive results are not listed. Active and inactive are the calls of the source. Calls come from the whole dose curve; as a rule, active = well fitted inhibition curve with a large enough effect; inconclusive = small, poorly fitted or top-dose-only effect; inactive = no such curve, though single readings can be large or run the other way.

Recorded Potency, per entry:
CN(C)c1nc(C#N)nc(N(C)C)n1 = 14.1 µM (active)
CCc1ccc(-c2nc3c(=O)n(C)c(=O)nc-3n(CC)n2)cc1 = 2.51 µM (active)
N#Cc1nc(N)nc(N2CCCCC2)n1 = 7.94 µM (active)
Cn1nc(-c2ccc(F)cc2)nc2c(=O)n(C)c(=O)nc1-2 = 0.631 µM (active)

Measured Potency of CCC(C(=O)NC1CCCCC1)n1c(SCc2ccc(F)cc2)nc2ccncc21 (stereo not given) : 4.47 µM (active)
